The reported measurements were obtained from PubChem BioAssay (NCI).

tested on: HT29 colon; experiment: NCI tumour cell line growth inhibition, 48 h
Classify by measured TGI: rule met if it is equal to or exceeds 7 µM, rule not met if it is smaller.

Some solved cases for reference:
[[record]]
compound = "O=C1C=CC(=O)N1c1cccc(N2C(=O)C=CC2=O)c1"
cat = "rule not met"

[[record]]
compound = "CSC(=S)OC1CC(n2cnc3c(NC(=O)c4ccccc4)ncnc32)OC1CO[Si](C)(C)C(C)(C)C (stereo unspecified)"
cat = "rule met"

[[record]]
compound = "O=C1/C(=C/c2ccc(Oc3ccccc3)cc2)N=C(c2ccccc2)N1c1ccc(S(=O)(=O)Nc2nccs2)cc1"
cat = "rule met"


Q: Check the entry CN(C)c1ccc(C2CC(c3ccc4ccccc4c3O)=NN2c2ccc([N+](=O)[O-])cc2[N+](=O)[O-])cc1 (stereo unspecified) : does TGI equal or exceed 7 µM?
Result: rule met

Q: Check the entry Cc1ccnc2[nH]c(-c3ccc(F)cc3)cc(=O)c12 : does TGI equal or exceed 7 µM?
Result: rule met

Q: Check the entry COC1(OC)C=CC2C1C1C=CC2C1(OC)OC (stereo unspecified) : does TGI equal or exceed 7 µM?
Result: rule met

Q: Check the entry O=C(O)[C@H](Cc1ccccc1)NCCN1CCC[C@H]1C(=O)O : does TGI equal or exceed 7 µM?
Result: rule met

Q: Check the entry CN(C(=O)C1=CCC2(CC1)OCCO2)c1ccccc1I : does TGI equal or exceed 7 µM?
Result: rule met

Q: Check the entry O=C(NNC(=S)NCc1ccccc1)c1csc(NC(=S)NC2CCCCC2)n1 : does TGI equal or exceed 7 µM?
Result: rule met

Q: Check the entry O=C1c2ccccc2C2C1C(c1ccccc1)C1(Cc3ccccc3C1=O)C2c1ccccc1 (stereo unspecified) : does TGI equal or exceed 7 µM?
Result: rule met

Q: Check the entry C/C(=C\c1cc(C(F)(F)F)n(-c2ccc(N)cc2)n1)[C@@H]1C[C@@H]2O[C@]2(C)CCC[C@H](C)[C@H](O)[C@@H](C)C(=O)C(C)(C)[C@@H](O)CC(=O)O1 : does TGI equal or exceed 7 µM?
Result: rule not met

Q: Check the entry C=C(CO)[C@@H]1CC[C@]2(COC3CCCCO3)CC[C@]3(C)[C@H](CC[C@@H]4[C@@]5(C)C=C(C=O)C(=O)C(C)(C)[C@@H]5CC[C@]43C)[C@@H]12 (stereo partly specified) : does TGI equal or exceed 7 µM?
Result: rule not met

Q: Check the entry C[N+](C)(C)CC(=O)N/N=C(\C(=O)NC1=C(Cl)C(=O)c2ccccc2C1=O)C(C#N)c1nc(-c2ccc([N+](=O)[O-])cc2)cs1 (stereo unspecified) : does TGI equal or exceed 7 µM?
Result: rule met

Q: Check the entry CCCCCCCCCC(=O)OCC1OC(n2cc(F)c(=O)[nH]c2=O)C(NC(=O)OCc2ccccc2)C(OC(=O)CCCCCCCCC)C1O (stereo unspecified) : does TGI equal or exceed 7 µM?
Result: rule met

Q: Check the entry CCN(CC)C1C(=O)NC1C#Cc1ccccc1 (stereo unspecified) : does TGI equal or exceed 7 µM?
Result: rule met

Q: Check the entry O=C(c1ccccc1)c1nc2ccc(Cl)cc2c2c1CCCO2 : does TGI equal or exceed 7 µM?
Result: rule met

###

system: U251 CNS; experiment: NCI tumour cell line growth inhibition, 48 h
A collection of compounds and their measured TGI

In the examples that follow, each entry is paired with its recorded TGI.
[[record]]
compound = "COc1ccc(N=NC(=Nc2ccc(Cl)cc2)c2ccc(N(CCC#N)CCC#N)cc2)cc1"
recorded_endpoint = "TGI"
result = "> 100 µM"

[[record]]
compound = "C=C(CO)[C@@H]1CC[C@]2(COC3CCCCO3)CC[C@]3(C)[C@H](CC[C@@H]4[C@@]5(C)C=C(C=O)C(=O)C(C)(C)[C@@H]5CC[C@]43C)[C@@H]12 (some centres undefined)"
recorded_endpoint = "TGI"
result = "0.546 µM"

[[record]]
compound = "O=C1c2ccccc2-c2c1c1c(O)cccc1n2Cc1ccccn1"
recorded_endpoint = "TGI"
result = "> 100 µM"

[[record]]
compound = "CC(=[N-])N1CCC[C@@H](Nc2c3ccccc3nc3ccccc23)C1.[Cl][Pt].[NH-]CCC[NH-]"
recorded_endpoint = "TGI"
result = "> 100 µM"

[[record]]
compound = "CCN(CCCl)c1cc(CN(C)C)cc(NC(=O)C23CCC(C(=O)Nc4cc(CN(C)C)cc(N(CC)CCCl)c4)(CC2)CC3)c1"
recorded_endpoint = "TGI"
result = "11 µM"

[[record]]
compound = "O=C(Nc1cccc(-c2ccc(Cl)c(C(F)(F)F)c2)c1)C1CCN(Cc2cccc3cccnc23)CC1"
recorded_endpoint = "TGI"
result = "3.29 µM"

[[record]]
compound = "O=C(c1ccccc1)C1C(c2ccccc2)N1S(=O)(=O)c1ccccc1 (centres undefined)"
recorded_endpoint = "TGI"
result = "> 100 µM"

[[record]]
compound = "Nc1ccc(C23CC4CC(C2)CC(c2ccc(N)cc2)(C4)C3)cc1"
recorded_endpoint = "TGI"
result = "35.6 µM"

[[record]]
compound = "N#CC1(C#N)C2C=CC(c3coc4cccc2c34)C1(C#N)C#N (centres undefined)"
recorded_endpoint = "TGI"
result = "33.9 µM"

[[record]]
compound = "COC(=O)C(C(=O)C(=O)Nc1cccc([N+](=O)[O-])c1)c1nc2ccc([N+](=O)[O-])cc2[nH]c1=O (centres undefined)"
recorded_endpoint = "TGI"
result = "> 100 µM"


Q: What value of TGI has been recorded for this entry: CSc1nc(C)c(CCOC(C)=O)c(Cl)n1
Result: > 100 µM
